- Assayed system: PI3K p110 beta/p85 alpha (Homo sapiens)
- Sequence (P27986 whole entry): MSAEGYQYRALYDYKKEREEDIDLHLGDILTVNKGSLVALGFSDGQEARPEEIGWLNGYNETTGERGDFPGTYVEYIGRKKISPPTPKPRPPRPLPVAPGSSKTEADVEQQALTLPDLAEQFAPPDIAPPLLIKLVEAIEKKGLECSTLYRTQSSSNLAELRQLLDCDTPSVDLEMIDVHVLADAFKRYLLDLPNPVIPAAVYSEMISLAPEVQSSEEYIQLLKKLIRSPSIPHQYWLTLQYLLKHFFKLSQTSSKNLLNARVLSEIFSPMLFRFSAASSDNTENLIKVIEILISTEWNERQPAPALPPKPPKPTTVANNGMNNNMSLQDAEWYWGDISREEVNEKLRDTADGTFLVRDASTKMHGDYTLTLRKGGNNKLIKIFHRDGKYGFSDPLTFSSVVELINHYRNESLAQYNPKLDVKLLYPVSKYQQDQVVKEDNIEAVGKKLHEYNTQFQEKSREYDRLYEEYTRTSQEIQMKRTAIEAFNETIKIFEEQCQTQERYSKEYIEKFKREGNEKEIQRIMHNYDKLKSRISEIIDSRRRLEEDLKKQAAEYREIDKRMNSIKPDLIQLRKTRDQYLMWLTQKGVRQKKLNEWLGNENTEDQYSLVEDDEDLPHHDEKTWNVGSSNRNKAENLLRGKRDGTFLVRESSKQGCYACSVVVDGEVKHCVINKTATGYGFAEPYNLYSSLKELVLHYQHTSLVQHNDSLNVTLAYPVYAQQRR
- Sequence (P42338 whole entry): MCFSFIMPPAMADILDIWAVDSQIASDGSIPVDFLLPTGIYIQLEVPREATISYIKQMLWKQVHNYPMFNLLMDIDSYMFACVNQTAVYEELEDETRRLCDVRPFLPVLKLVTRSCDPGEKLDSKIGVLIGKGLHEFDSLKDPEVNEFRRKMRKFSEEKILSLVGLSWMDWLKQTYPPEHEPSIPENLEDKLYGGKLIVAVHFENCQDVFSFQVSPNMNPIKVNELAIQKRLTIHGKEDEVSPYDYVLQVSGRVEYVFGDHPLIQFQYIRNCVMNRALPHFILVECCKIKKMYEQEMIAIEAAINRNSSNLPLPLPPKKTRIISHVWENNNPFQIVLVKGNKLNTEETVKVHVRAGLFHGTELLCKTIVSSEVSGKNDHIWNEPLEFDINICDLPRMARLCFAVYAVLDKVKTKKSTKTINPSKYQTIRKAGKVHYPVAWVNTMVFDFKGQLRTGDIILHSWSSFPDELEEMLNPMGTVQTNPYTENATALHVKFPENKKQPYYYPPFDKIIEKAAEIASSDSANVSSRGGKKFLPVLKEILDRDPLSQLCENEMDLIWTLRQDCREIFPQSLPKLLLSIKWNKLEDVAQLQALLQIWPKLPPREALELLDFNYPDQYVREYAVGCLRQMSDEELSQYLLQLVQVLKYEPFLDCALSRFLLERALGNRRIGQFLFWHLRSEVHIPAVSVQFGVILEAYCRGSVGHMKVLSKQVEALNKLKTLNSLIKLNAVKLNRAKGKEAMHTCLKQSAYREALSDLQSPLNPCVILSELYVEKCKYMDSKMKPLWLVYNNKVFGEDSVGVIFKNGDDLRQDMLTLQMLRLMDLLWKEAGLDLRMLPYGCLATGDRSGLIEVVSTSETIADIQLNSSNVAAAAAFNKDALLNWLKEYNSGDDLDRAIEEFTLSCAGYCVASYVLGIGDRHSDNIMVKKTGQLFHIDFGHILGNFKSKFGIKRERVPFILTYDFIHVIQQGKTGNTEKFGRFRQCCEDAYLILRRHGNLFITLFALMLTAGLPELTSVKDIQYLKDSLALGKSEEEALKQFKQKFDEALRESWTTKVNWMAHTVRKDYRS
- Protocol details: Inhibition of recombinant human full length PI3K p110beta/p85alpha using phosphatidylinositol-4, 5-bisphosphate as substrate incubated for 40 mins in presence of [gamma33P]ATP by radiometric scintillation counting analysis
pIC50: −log10 of the molar value.
Attribute measured: pIC50

Task: Please supply the value of reported pIC50 for the item `CN(C)c1ccc(C(=O)Nc2cccc(NC(=O)COc3ccc4c(=O)ccoc4c3)c2)cc1`
Result: < 5.00

====

- Assayed system: Dual specificity tyrosine-phosphorylation-regulated kinase 1B (Homo sapiens, UniProt Q9Y463)
- Sequence (Q9Y463 whole entry): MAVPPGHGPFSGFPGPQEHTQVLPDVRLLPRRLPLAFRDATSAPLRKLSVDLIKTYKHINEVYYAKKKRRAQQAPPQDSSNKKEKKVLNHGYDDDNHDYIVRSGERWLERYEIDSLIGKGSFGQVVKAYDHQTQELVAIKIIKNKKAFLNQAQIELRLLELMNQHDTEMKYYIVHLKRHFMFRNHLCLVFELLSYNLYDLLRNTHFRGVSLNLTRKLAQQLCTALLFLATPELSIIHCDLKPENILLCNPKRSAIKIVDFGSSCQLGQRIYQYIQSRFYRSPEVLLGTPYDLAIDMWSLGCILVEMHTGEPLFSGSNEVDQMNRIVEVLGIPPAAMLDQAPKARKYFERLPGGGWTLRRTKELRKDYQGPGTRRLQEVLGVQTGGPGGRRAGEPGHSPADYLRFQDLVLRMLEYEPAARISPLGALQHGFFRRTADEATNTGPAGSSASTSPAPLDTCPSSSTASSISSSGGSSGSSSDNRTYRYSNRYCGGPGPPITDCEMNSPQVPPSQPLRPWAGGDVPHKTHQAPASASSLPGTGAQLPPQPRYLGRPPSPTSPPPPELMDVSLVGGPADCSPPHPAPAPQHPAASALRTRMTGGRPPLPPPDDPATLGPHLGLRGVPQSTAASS
- Protocol details: Inhibition of recombinant full length human DYRK1B using RRRFRPASPLRGPP as substrate after 40 mins in presence of [gamma-33ATP] by radiometric scintillation counting analysis
pIC50: −log10 of the molar value.
Attribute measured: pIC50

Task: Please supply the value of reported pIC50 for the item `CN(C)c1ccc(C(=O)Nc2cccc(NC(=O)COc3ccc4c(=O)ccoc4c3)c2)cc1`
Result: < 5.00
